test system: SUDHL10; test: Induction of caspase-3/7 activity (Caspase-Glo 3/7), SUDHL10; format: cell-based; details: Homo sapiens, SU-DHL10, 3 h, caspase-3/7 induction, SUDHL10 cells, 3 h treatment; median
Would you mind telling me the reported EC50 of each entry?
One number for each entry, in µM.

Any idea what EC50 was measured for Cc1c2c(nn1CCN1CCOCC1)COCCCCn1c(C(=O)O)c(CCCOc3cccc4cc(F)ccc34)c3cccc-2c31 (racemic) [Example 284] ?
3.73

Alright, here's another compound for you.
Consider the compound shown here: Cc1c2c(nn1C)COCCCCn1c(C(=O)O)c(CCCOc3cccc4cc(C(F)(F)F)ccc34)c3cccc-2c31 (racemic) [Example 310] What is its recorded EC50?
21.3
